Parameter 'readout' = IC50; parameter 'system' = GPR84 (Homo sapiens).
Sequence (Q9NQS5 whole entry): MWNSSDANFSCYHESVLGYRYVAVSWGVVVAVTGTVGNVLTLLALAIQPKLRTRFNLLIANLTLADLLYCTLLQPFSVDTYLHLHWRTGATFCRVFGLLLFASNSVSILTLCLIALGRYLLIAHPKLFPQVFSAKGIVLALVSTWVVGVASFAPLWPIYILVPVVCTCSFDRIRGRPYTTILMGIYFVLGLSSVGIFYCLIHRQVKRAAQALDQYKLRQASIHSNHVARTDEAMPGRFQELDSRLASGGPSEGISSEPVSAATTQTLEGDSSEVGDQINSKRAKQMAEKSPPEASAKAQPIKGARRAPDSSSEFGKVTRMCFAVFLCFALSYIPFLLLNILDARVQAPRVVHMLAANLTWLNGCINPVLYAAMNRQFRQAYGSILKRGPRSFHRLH

Exercise: Please report the measured IC50 for CCC(O)C#Cc1ccc2c(c1)CCn1c-2cc(OCC2COCCO2)nc1=O (stereo not shown) [Compound 89]
Key: 101 to 500 nM

Exercise: Please report IC50 for the following compound: COc1cccc(-c2ccc3c(c2)CCn2c-3cc(OCC3COCCO3)nc2=O)c1 (stereo not shown) [Compound 43]
Key: 101 to 500 nM

Exercise: Identify measured IC50 associated with O=c1nc(OCC2COCCO2)cc2n1CCc1cc(C#CCNc3ccccc3)ccc1-2 (stereo not shown) [Compound 107]
Key: 0.01 to 100 nM

Exercise: Report IC50 for O=c1nc(OC[C@@H]2COCCO2)cc2n1CCc1cc(COCC3CCCC3)ccc1-2 [Compound 147]
Key: 0.01 to 100 nM

Exercise: Consider the compound CC(C)(C)c1cnc(COc2ccc3c(c2)CCn2c-3cc(OCC3COCCO3)nc2=O)o1 (stereo not shown) [Compound 76] and give its recorded IC50.
Key: 0.01 to 100 nM

Exercise: State, in one line, measured IC50 of O=c1nc(OCC2COCCO2)cc2n1CCc1cc(C#Cc3ncccn3)ccc1-2 (stereo not shown) [Compound 106]
Key: 501 to 1000 nM

Exercise: Item CCc1nc(COc2ccc3c(c2)CCn2c-3cc(OCC3COCCO3)nc2=O)no1 (stereo not shown) [Compound 78] : provide IC50
Key: 0.01 to 100 nM

Exercise: For COC(C)CCc1ccc2c(c1)CCn1c-2cc(OC[C@@H]2COCCO2)nc1=O (stereo partly shown) [Compound 148] , write its IC50.
Key: 0.01 to 100 nM

Exercise: Write down IC50 measured for item O=c1nc(OCC2COCCO2)cc2n1CCc1cc(C#Cc3ccncc3)ccc1-2 (stereo not shown) [Compound 53]
Key: 101 to 500 nM

Exercise: Assign IC50 to the following record: CC(C)(O)CCc1ccc2c(c1)CCn1c-2cc(OC[C@@H]2COCCO2)nc1=O [Compound 156]
Key: 101 to 500 nM

Exercise: Assign IC50 to the following record: CCCOCCOc1ccc2c(c1)CCn1c-2cc(OC[C@H]2COCCO2)nc1=O [Compound 172]
Key: 101 to 500 nM

Exercise: Retrieve IC50 measured for O=c1nc(OC[C@@H]2COCCO2)cc2n1CCc1cc(COC3CCCCC3)ccc1-2 [Compound 137] and print it.
Key: 0.01 to 100 nM

Exercise: Dear colleague, please send me the reported IC50 for Cc1nc(COc2ccc3c(c2)CCn2c-3cc(OCC3COCCO3)nc2=O)no1 (stereo not shown) [Compound 79] when you can.
Key: 101 to 500 nM

Exercise: Given CCC(C)(C)CNc1ccc2c(c1)CCn1c-2cc(OC[C@@H]2COCCO2)nc1=O [Compound 126] , respond with its IC50.
Key: 0.01 to 100 nM

Exercise: Tell me measured IC50 for N#Cc1ccc(-c2ccc3c(c2)CCn2c-3cc(OCC3COCCO3)nc2=O)cn1 (stereo not shown) [Compound 59] please.
Key: 501 to 1000 nM

Exercise: Read off the recorded IC50 for N#Cc1ccc(-c2ccc3c(c2)CCn2c-3cc(OCC3COCCO3)nc2=O)cc1 (stereo not shown) [Compound 6]
Key: 101 to 500 nM

Exercise: Supply reported IC50 belonging to this compound: CC(C)(C)CCCOc1ccc2c(c1)CCn1c-2cc(OC[C@@H]2COCCO2)nc1=O [Compound 141]
Key: 101 to 500 nM

Exercise: Give IC50 for the following compound: CC(O)CCCc1ccc2c(c1)CCn1c-2cc(OC[C@@H]2COCCO2)nc1=O (stereo partly shown) [Compound 150]
Key: 101 to 500 nM

Exercise: Give reported IC50 value for COCCCCc1ccc2c(c1)CCn1c-2cc(OC[C@@H]2COCCO2)nc1=O [Compound 174]
Key: 0.01 to 100 nM

Exercise: Respond only with IC50 recorded for O=c1nc(OC[C@@H]2COCCO2)cc2n1CCc1cc(COC3COC3)ccc1-2 [Compound 124]
Key: 101 to 500 nM

Exercise: Give the measured IC50 for COCCOCC#Cc1ccc2c(c1)CCn1c-2cc(OC[C@@H]2COCCO2)nc1=O [Compound 133]
Key: 101 to 500 nM

Exercise: Provide measured IC50 value, entry: O=c1nc(OC[C@@H]2COCCO2)cc2n1CCc1cc(CCC3CC3)ccc1-2 [Compound 123]
Key: 0.01 to 100 nM

Exercise: Using the record for CC(C)(C)C(O)CCc1ccc2c(c1)CCn1c-2cc(OC[C@@H]2COCCO2)nc1=O (stereo partly shown) [Compound 146] , state its measured IC50.
Key: 0.01 to 100 nM

Exercise: Dear colleague, please send me the reported IC50 for CCCOCCOc1ccc2c(c1)CCn1c-2cc(OC[C@@H]2COCCO2)nc1=O [Compound 170] when you can.
Key: 0.01 to 100 nM

Exercise: # return recorded IC50 for entry O=c1nc(OCC2COCCO2)cc2n1CCc1cc(OCc3ncc(-c4ccccc4)o3)ccc1-2 (stereo not shown) [Compound 75]
Key: 0.01 to 100 nM

Exercise: Supply recorded IC50 for CC(C)(C)C#Cc1ccc2c(c1)CCn1c-2cc(OCC2COCCO2)nc1=O (stereo not shown) [Compound 52] here.
Key: 0.01 to 100 nM

Exercise: Read the entry COc1ccc(-c2ccc3c(c2)CCn2c-3cc(OCC3COCCO3)nc2=O)c(OC)n1 (stereo not shown) [Compound 70] and write its reported IC50.
Key: 0.01 to 100 nM

Exercise: Determine its reported IC50: C=CCOc1ccc2c(c1)CCn1c-2cc(OC[C@H]2COCCO2)nc1=O [Compound 117]
Key: 101 to 500 nM

Exercise: Assign IC50 to the following record: NC(=O)c1cc(F)cc(-c2ccc3c(c2)CCn2c-3cc(OCC3COCCO3)nc2=O)c1 (stereo not shown) [Compound 51]
Key: 101 to 500 nM

Exercise: Consider the compound CC(C)(O)CCCc1ccc2c(c1)CCn1c-2cc(OC[C@@H]2COCCO2)nc1=O [Compound 160] . State its measured IC50.
Key: 101 to 500 nM

Exercise: Provide only the value of recorded IC50 for O=c1nc(OCC2COCCO2)cc2n1CCc1cc(-c3ccc(N4CCOCC4)nc3)ccc1-2 (stereo not shown) [Compound 62]
Key: 0.01 to 100 nM

Exercise: Dear colleague, please send me the reported IC50 for O=c1nc(OC[C@@H]2COCCO2)cc2n1CCc1cc(CCC3(O)CCCC3)ccc1-2 [Compound 166] when you can.
Key: 0.01 to 100 nM

Exercise: Specify measured IC50 for CC(C)(C)COc1ccc2c(c1)CCn1c-2cc(OC[C@@H]2COCCO2)nc1=O [Compound 158] .
Key: 101 to 500 nM

Exercise: Consider the compound C#Cc1ccc2c(c1)CCn1c-2cc(OCC2COCCO2)nc1=O (stereo not shown) [Compound 105] . State its measured IC50.
Key: 101 to 500 nM
